Source listed as the supplement of paper PMC6555819.

tested on: FXR:RXRa (NR concentration 270 nM, RXRa partner concentration 90 nM); assay: PBM binding z-score (relative to random genomic background probes); higher = stronger binding; sequences stand for … in GC…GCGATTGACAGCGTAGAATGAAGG
reported-metric: PBM binding z-score
Give the value as a plain number.

Ask: Record CGAACTAGGTCAAGGACAGCGAATCTCCGCACGC : what is its PBM binding z-score with FXR:RXRa (NR concentration 270 nM, RXRa partner concentration 90 nM)?
Reply: 3.45

Ask: Record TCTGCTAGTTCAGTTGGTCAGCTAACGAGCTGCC : what is its PBM binding z-score with FXR:RXRa (NR concentration 270 nM, RXRa partner concentration 90 nM)?
Reply: -0.661

---
Ask: Record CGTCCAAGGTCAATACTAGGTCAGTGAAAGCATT : what is its PBM binding z-score with FXR:RXRa (NR concentration 270 nM, RXRa partner concentration 90 nM)?
Reply: 6.7

Ask: Record TCTTGTAGATCAAGCAGGTTAAGACAGCCTGAGT : what is its PBM binding z-score with FXR:RXRa (NR concentration 270 nM, RXRa partner concentration 90 nM)?
Reply: 0.233

---

test system: LXRb:RXRa (NR concentration 270 nM, RXRa partner concentration 90 nM); assay: PBM binding z-score (relative to random genomic background probes); higher = stronger binding; sequences stand for … in GC…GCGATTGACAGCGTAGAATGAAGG
Everything with PBM binding z-score lower than 0.2 is 0.0; everything else, including exactly 0.2, is 1.0.

The examples below pair each entry with its known result.
Ask: Please indicate if the recorded PBM binding z-score for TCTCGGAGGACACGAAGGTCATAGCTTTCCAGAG meets or exceeds 0.2.
Reply: 1.0

Ask: Please indicate if the recorded PBM binding z-score for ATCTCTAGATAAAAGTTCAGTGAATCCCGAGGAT meets or exceeds 0.2.
Reply: 1.0

Ask: Please indicate if the recorded PBM binding z-score for ATCTCTATGTAAGACTCAGTTCAGTGAAGAACGC meets or exceeds 0.2.
Reply: 0.0

Okay, now this sequence:
Ask: Please indicate if the recorded PBM binding z-score for AGAATGAGGTTAAGATCGGGGAAACAGAATACAT meets or exceeds 0.2.
Reply: 1.0

---

test system: RXRa DBDmut IVT, anti-RXR (DBD mutation: RXRa K156A/R161A, NR concentration 90 nM); test: PBM binding z-score (relative to random genomic background probes); higher = stronger binding; sequences stand for … in GC…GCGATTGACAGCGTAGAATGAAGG
Everything with PBM binding z-score lower than 1 is F; everything else, including exactly 1, is T.

The examples below pair each entry with its known result.
Ask: Please indicate if the recorded PBM binding z-score for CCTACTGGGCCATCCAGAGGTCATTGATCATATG meets or exceeds 1.
Reply: F

Ask: Please indicate if the recorded PBM binding z-score for AGAACGAGGGCAATGAGTTTATAGCACGGGTGGC meets or exceeds 1.
Reply: T

Ask: Please indicate if the recorded PBM binding z-score for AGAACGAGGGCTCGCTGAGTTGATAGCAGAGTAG meets or exceeds 1.
Reply: F

Ask: Please indicate if the recorded PBM binding z-score for TTACCAAGGTGAAGGTCGATGATCCCTCTGTAGA meets or exceeds 1.
Reply: F

---
Ask: Please indicate if the recorded PBM binding z-score for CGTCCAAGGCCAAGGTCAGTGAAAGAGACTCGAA meets or exceeds 1.
Reply: T

Ask: Please indicate if the recorded PBM binding z-score for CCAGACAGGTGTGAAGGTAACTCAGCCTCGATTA meets or exceeds 1.
Reply: F

Ask: Please indicate if the recorded PBM binding z-score for TTACCAAGGTGCGCTGAGGTCGTTGATCCAACTC meets or exceeds 1.
Reply: T

Ask: Please indicate if the recorded PBM binding z-score for ACAGACAGGTGATGAAGGTAACTCCGGCTATCAT meets or exceeds 1.
Reply: F

Ask: Please indicate if the recorded PBM binding z-score for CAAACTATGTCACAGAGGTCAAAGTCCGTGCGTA meets or exceeds 1.
Reply: T

Ask: Please indicate if the recorded PBM binding z-score for CTGCCAAGGTGAACAAGGTCGTTGATTACTATTC meets or exceeds 1.
Reply: T

Ask: Please indicate if the recorded PBM binding z-score for ACTAGTTGGCCAGCTGAGGTCACACACAATTCGG meets or exceeds 1.
Reply: F

Ask: Please indicate if the recorded PBM binding z-score for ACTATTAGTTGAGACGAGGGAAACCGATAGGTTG meets or exceeds 1.
Reply: F

Ask: Please indicate if the recorded PBM binding z-score for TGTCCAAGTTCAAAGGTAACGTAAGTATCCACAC meets or exceeds 1.
Reply: T

Ask: Please indicate if the recorded PBM binding z-score for ATCGAAAGGTGGTGAGGTGAGTATACAGAAAGGC meets or exceeds 1.
Reply: F

Ask: Please indicate if the recorded PBM binding z-score for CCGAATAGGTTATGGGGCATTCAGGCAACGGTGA meets or exceeds 1.
Reply: F

Ask: Please indicate if the recorded PBM binding z-score for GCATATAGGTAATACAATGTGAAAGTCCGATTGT meets or exceeds 1.
Reply: F

Ask: Please indicate if the recorded PBM binding z-score for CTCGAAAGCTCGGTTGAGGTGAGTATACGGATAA meets or exceeds 1.
Reply: F

---

tested on: LXRb:RXRa (NR concentration 270 nM, RXRa partner concentration 90 nM); assay: PBM binding z-score (relative to random genomic background probes); higher = stronger binding; sequences stand for … in GC…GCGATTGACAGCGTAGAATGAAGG
reported-metric: PBM binding z-score

Ask: Record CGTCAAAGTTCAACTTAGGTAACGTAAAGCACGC : what is its PBM binding z-score with LXRb:RXRa (NR concentration 270 nM, RXRa partner concentration 90 nM)?
Reply: 4.63

---
Ask: Record TCTACTAGGTCAGTTGGTCAGCTAACGAGCTGCC : what is its PBM binding z-score with LXRb:RXRa (NR concentration 270 nM, RXRa partner concentration 90 nM)?
Reply: 0.857

Ask: Record CCTACTGGGCCAAATGTCATTGATTCCAATGCTC : what is its PBM binding z-score with LXRb:RXRa (NR concentration 270 nM, RXRa partner concentration 90 nM)?
Reply: 0.307

Ask: Record GCGACTGCGGCAAAGCAGGTTACCATAAGGTTGG : what is its PBM binding z-score with LXRb:RXRa (NR concentration 270 nM, RXRa partner concentration 90 nM)?
Reply: -0.429

---

test system: PPARg:RXRa 270nM:90nM, anti-RXR (NR concentration 270 nM, RXRa partner concentration 90 nM); assay: PBM binding z-score (relative to random genomic background probes); higher = stronger binding; sequences stand for … in GC…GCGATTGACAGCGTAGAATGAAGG
Everything with PBM binding z-score lower than 3 is NOT MET; everything else, including exactly 3, is MET.

The examples below pair each entry with its known result.
Ask: Please indicate if the recorded PBM binding z-score for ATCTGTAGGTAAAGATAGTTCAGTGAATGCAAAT meets or exceeds 3.
Reply: NOT MET

Ask: Please indicate if the recorded PBM binding z-score for CCTAGTTGGTCAGGAGGTCACACTCCGGATATGA meets or exceeds 3.
Reply: MET

Ask: Please indicate if the recorded PBM binding z-score for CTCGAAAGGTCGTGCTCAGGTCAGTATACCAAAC meets or exceeds 3.
Reply: MET

---
Ask: Please indicate if the recorded PBM binding z-score for ATCTGTAGGTAAAAGTTCAGTGAATCCCGAGGAT meets or exceeds 3.
Reply: MET

Ask: Please indicate if the recorded PBM binding z-score for CGTCCAAGGTCAGCAGGTAAGTGAAAGCGACGTG meets or exceeds 3.
Reply: MET

Ask: Please indicate if the recorded PBM binding z-score for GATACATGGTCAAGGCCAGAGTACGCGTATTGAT meets or exceeds 3.
Reply: NOT MET

---

system: RXRa DBDmut IVT, anti-RXR (DBD mutation: RXRa K156A/R161A, NR concentration 90 nM); test: PBM binding z-score (relative to random genomic background probes); higher = stronger binding; sequences stand for … in GC…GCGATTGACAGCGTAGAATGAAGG
# Lookup of reported PBM binding z-score keyed by entry
Give the value as a plain number.

Observe how each entry below is paired with its result.
Ask: What value of PBM binding z-score has been recorded for this entry: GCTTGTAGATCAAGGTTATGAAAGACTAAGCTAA
Reply: -0.2

Ask: What value of PBM binding z-score has been recorded for this entry: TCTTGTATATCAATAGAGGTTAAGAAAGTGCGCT
Reply: 1.05

Below: the item to evaluate.
Ask: What value of PBM binding z-score has been recorded for this entry: CCTACTGGGCCATCAAGTCATTGATATCAACGTT
Reply: 0.0115
